These measurements were taken from ChEMBL document CHEMBL4311942.

- Tested on: Salmonella typhimurium
- Protocol description: Antibacterial activity against Salmonella enterica serovar typhimurium C77-31 incubated for 18 to 24 hrs by broth microdilution method
- Format: functional, Salmonella enterica subsp. enterica serovar Typhimurium
Where a SMILES comes first, the peptide text is derived from it.
Measured attribute: MIC (µM)
Answer with a number only, understood to be in µM.

# query: MIC of entry CC(C)C[C@H](NC(=O)[C@H](CCCNC(=N)N)NC(=O)[C@H](CCCCN)NC(=O)[C@H](Cc1c[nH]c2ccccc12)NC(=O)[C@@H](NC(=O)[C@H](CCCCN)NC(=O)[C@H](CCCCN)NC(=O)[C@H](CCCNC(=N)N)NC(=O)[C@H](CC(C)C)NC(=O)[C@H](CCCNC(=N)N)NC(=O)[C@@H](N)CCCNC(=N)N)[C@@H](C)O)C(=O)N[C@@H](Cc1c[nH]c2ccccc12)C(N)=O (H-RRLRKKTWKRLW-NH2)
64

# query: MIC of entry CC[C@H](C)[C@H](NC(=O)[C@H](CCCNC(=N)N)NC(=O)[C@H](Cc1c[nH]c2ccccc12)NC(=O)[C@H](CCCNC(=N)N)NC(=O)[C@@H](NC(=O)[C@H](CCCCN)NC(=O)[C@H](Cc1c[nH]c2ccccc12)NC(=O)[C@H](CCCNC(=N)N)NC(=O)[C@@H](NC(=O)[C@H](CCCNC(=N)N)NC(=O)[C@@H](N)Cc1c[nH]c2ccccc12)[C@@H](C)CC)[C@@H](C)O)C(=O)N[C@@H](CCCCN)C(N)=O (H-WRIRWKTRWRIK-NH2)
2

# query: MIC of entry CC(C)[C@H](NC(=O)[C@H](CCCNC(=N)N)NC(=O)[C@H](Cc1c[nH]c2ccccc12)NC(=O)[C@H](CCCNC(=N)N)NC(=O)[C@@H](NC(=O)[C@H](CCCNC(=N)N)NC(=O)[C@H](Cc1c[nH]c2ccccc12)NC(=O)[C@H](CCCNC(=N)N)NC(=O)[C@@H](NC(=O)[C@H](CCCNC(=N)N)NC(=O)[C@@H](N)Cc1c[nH]c2ccccc12)C(C)C)C(C)C)C(=O)N[C@@H](CCCNC(=N)N)C(N)=O (H-WRVRWRVRWRVR-NH2)
4

---

Exercise: state measured viability at 24 h for each of the compounds provided.
- Protocol description: Cytotoxicity against mouse RAW264.7 cells assessed as cell survival at <= 32 uM after 24 hrs by MTT assay relative to control
- Type: cell-based
- Protocol conditions: RAW264.7 cells, up to 32 µM, read-out: Activity
Where a SMILES comes first, the peptide text is derived from it.

# query: viability at 24 h of entry CC(C)C[C@H](NC(=O)[C@H](CCCNC(=N)N)NC(=O)[C@H](CCCCN)NC(=O)[C@H](Cc1c[nH]c2ccccc12)NC(=O)[C@@H](NC(=O)[C@H](CCCCN)NC(=O)[C@H](CCCCN)NC(=O)[C@H](Cc1c[nH]c2ccccc12)NC(=O)[C@H](CC(C)C)NC(=O)[C@H](CCCNC(=N)N)NC(=O)[C@@H](N)CCCNC(=N)N)[C@@H](C)O)C(=O)N[C@@H](Cc1c[nH]c2ccccc12)C(N)=O (H-RRLWKKTWKRLW-NH2)
≥ 70%

# query: viability at 24 h of entry CC(C)C[C@H](NC(=O)[C@H](CCCNC(=N)N)NC(=O)[C@H](Cc1c[nH]c2ccccc12)NC(=O)[C@H](CCCNC(=N)N)NC(=O)[C@@H](NC(=O)[C@H](CCCCN)NC(=O)[C@H](Cc1c[nH]c2ccccc12)NC(=O)[C@H](CCCNC(=N)N)NC(=O)[C@H](CC(C)C)NC(=O)[C@H](CCCNC(=N)N)NC(=O)[C@@H](N)CCCNC(=N)N)[C@@H](C)O)C(=O)N[C@@H](CCCCN)C(N)=O (H-RRLRWKTRWRLK-NH2)
≥ 70%

# query: viability at 24 h of entry CC(C)C[C@H](NC(=O)[C@H](CCCNC(=N)N)NC(=O)[C@H](CCCCN)NC(=O)[C@H](Cc1c[nH]c2ccccc12)NC(=O)[C@@H](NC(=O)[C@H](CCCCN)NC(=O)[C@H](CCCCN)NC(=O)[C@H](CCCNC(=N)N)NC(=O)[C@H](CC(C)C)NC(=O)[C@H](CCCNC(=N)N)NC(=O)[C@@H](N)CCCNC(=N)N)[C@@H](C)O)C(=O)N[C@@H](Cc1c[nH]c2ccccc12)C(N)=O (H-RRLRKKTWKRLW-NH2)
≥ 70%
